assay: Elimination half life in human; conditions: in vivo
Readout type: half-life

INSERT INTO assay_data (compound, readout_type, reading) VALUES
  ('CC1(C)CN([C@@H]2C[C@@H](c3ccccc3)c3ccc(Cl)cc32)CCN1 (relative stereo)', 'half-life', '300 to 400 h');

Let us examine a further case.
Look up half-life: CN1CCN([C@@H]2C[C@@H](c3ccccc3)c3ccc(Cl)cc32)CC1(C)C ~150 h
